Values from the supplement of paper PMC9170038

Measured apparent KD of K4 kissing-loop reporter accompanies every entry in the list below.
Tested on: K4 kissing-loop RNA reporter;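 further: bound reporter read as fluorescence of individual clusters on recovered sequencing chips by microscopy, with normalized cluster intensities fitted with a binding model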
Test: apparent KD of K4 kissing-loop reporter; higher = weaker reporter binding
Settings: Eterna round: R107; input ligand: none
Metric name: apparent KD of K4 kissing-loop reporter (µM)

Residue codes | Metric name | Recorded result
AAAUUUAAUAUAUUUAAAUAAAUAUGUGAUACCAGACAUUUAUAAGUCCCUUGGCAGCACAAUGCAGUGAUGUUGCUUAUAAUAA [JR_SSTheophyA_Sub017] | apparent KD of K4 kissing-loop reporter | 0.0888
GCGUCUGUCGGAAGGAGCGCACUAUGGAGUGAUGUUCCAUGACCGCACAGCUUGCGGUCAGUGCAGGUAGGUCGCCGAUAGCGUU [Diestera] | apparent KD of K4 kissing-loop reporter | 0.154
UGAUACCAGACGGCCGCCACUCCCGCAGGUCAAAGACCUGCGAAGAAGGUUCUUCAGUGAUGUUGGAGGACCGGGUCUGGUAUCU [FiskerMod 22 - Jieux - Exclusion - Tryptophan B] | apparent KD of K4 kissing-loop reporter | 0.207

----------
Measured apparent KD of MS2 coat protein accompanies every entry in the list below.
Tested on: MS2 coat protein
Test: apparent KD of MS2 coat protein; designed switch direction (-1 OFF switch, 1 ON switch): -1; higher = weaker reporter binding
Conditions: Eterna round: R95; input ligand: microRNA oligo, concentration not stated

Residue codes | apparent KD of MS2 coat protein (nM)
UGGGUACUCCAUAGAAGAGACAUGAGGAUCACCCAUGUAGGGCAAGCUUUUUGCUCGUCUUAGGAUGAGGGAUAGGA [JR_SV3TOV1_Sub014] (puzzle: Sensor v3, turn-off variant 1) | 79.1
UAUUAACAAGCUAGGUCCCACAUGAGGAUCACCCAUGUGCUCGUCUUAUAAGGUACUGUGACGAAAGUCACGGUACC [Sensor 3, v1 - 79] (puzzle: Sensor v3, turn-off variant 1) | 909
GGUUGGCGAGGAUAUACAUGAGGAUCACCCAUGUGAUAGAAAAAAGUGAGGAAGAAAAGUAGAAGGCGCUGACG [salish99_ex3_r3_009] (puzzle: Exclusion 3) | 50.1

----------
System: MS2 coat protein
Experiment: apparent KD of MS2 coat protein; designed switch direction (-1 OFF switch, 1 ON switch): -1; higher = weaker reporter binding
Settings: input ligand: none
Label Criterion met when apparent KD of MS2 coat protein is at or above 30 nM; otherwise label Criterion not met.

Residue codes | Category
GUGCGCGGCUAGGAUAUUGUGGGUUUUUGUCUGCGAGAAGGAGCCACAUGAGGAUCACCCAUGUGGUGUUGCUC [salish99_ex6_r4_013] (Eterna round: R97, puzzle: Exclusion 6) | Criterion met
GUCCUGGACUAUCACAAGCACAUGAGGAUCACCCAUGUCAUGGGUAGAUCCAUAAAUAAAGAUACUGCUCGUCUUAU [Cac sensor turnoff var1 sub5] (Eterna round: R97, puzzle: Sensor, turn-off variant 1) | Criterion met
GCUUCUGGGCAAGGAUAUCCUGCGCUGUUCUGGUUCGUGUCUGUCACAUGAGGAUCACCCAUGUGGGAGAAGGUGCCUGUGGCG [Design 67] (Eterna round: R96, puzzle: Exclusion NG 2) | Criterion not met
CCGAACUCAGGAUAUGCAUGUAUAACAGAGAGAUCCACUAAACAUGAGGAUCACCCAUGUAGAAGGGAGUCGGG [Eternabot (L1) Solution 14] (Eterna round: R97, puzzle: Exclusion 2) | Criterion met
GCUAACCGAGGAUAUACAUGAGGAUCACCCAUGUUCGAUAUCCUCAUUAGAACUACAUGUAGAAGGCGGUAAGC [Eternabot (Original) Solution 2] (Eterna round: R97, puzzle: Exclusion 3) | Criterion not met
GGUCAACGUGUGAGGAUAUGUCAACCCUGUGGAAAGCAGAAGGCACAUGAGGAUCACCCAUGUAAUAAGAAAAC [Soasois] (Eterna round: R97, puzzle: Brourd's mod of Exclusion 4) | Criterion met
CUAUGGCAAGGAUAUACGUAUCAUGUGACGAUAGCUCAAGAACAUGAGGAUCACCCAUGUAGAAGGUGCGGAGA [Eternabot (L1) Solution 90] (Eterna round: R97, puzzle: Exclusion 2) | Criterion met
AAUAAUCAUGUAGGAUAUGCGUGGCAAAGCUAUGCAGAAGGACAUGAGGAUCACCCAUGUUCUAGCGUCUGAGUACAGAUGCUA [Mat - Exclusion NG 1 - Mod of JL - D81] (Eterna round: R96, puzzle: Exclusion NG 1) | Criterion met
GGCACACAUGAGGAUCACCCAUGUGAGGAUAUGGUGCGAUCGUCGAAAGACGAUAGCACUAGAAGGCACAUGCC [Eli x1 4.06] (Eterna round: R97, puzzle: Exclusion 1) | Criterion not met
UUAAAUCAUGUAGGAUAUGCGUGGCGAAGCUAUGCAGAAGGACAUGAGGAUCACCCAUGUGCUAGCGUCUGCGUACAGAUGCAA [JL ENG1 1.11] (Eterna round: R96, puzzle: Exclusion NG 1) | Criterion met

----------
Measured apparent KD of MS2 coat protein accompanies every entry in the list below.
Tested on: MS2 coat protein
Experiment: apparent KD of MS2 coat protein, switch OFF state (with FMN for OFF switches, without FMN for ON switches); designed switch direction (-1 OFF switch, 1 ON switch): -1; higher = weaker reporter binding
Conditions: FMN input: 0 or 200 uM; Eterna round: R93 (includes R88 designs)

Residue codes | apparent KD of MS2 coat protein
AGGGUACAUGAGGAUCACCCAUGUUAGGAUAUAGAAAAGAAAAGAAAAGAAAGAAGAACUAGAAGGGACAAGAA [Unas] | 41.3 nM
AAUAGUGAAGGAUAUACAGGAGAAGUACGAUAAAAGAAAGAACAUGAGGAUCACCCAUGUAGAAGGUCAGAAGU [JR_Exc002_Sub1228] | 26.3 nM
AGCAAACAUGAGGAUCACCCAUGUGAGGAUAUGAACGAAAUAAAAUAAAAAUAAAAGUUCAGAAGGCACGAGCA [Mat - Exclusion 1 - Eli mod - D26] | 37.4 nM
AAAAAACAUGAGGAUCACCCAUGUCAGGAUAUCGAAAAAUAAAUAAAAAUAAAAUAAACGAGAAGGGACAAAAA [May 11] | 44.7 nM
AAAAAGUGAGGAUAUAGCAAAGGUCACGAAAGUGACAAAGGCUAGAAGGCACAUGAGGAUCACCCAUGUCCAAA [Fiskers Exclusion 4 D2 63% 2] | 55.6 nM

----------
System: MS2 coat protein
Assay: apparent KD of MS2 coat protein; designed switch direction (-1 OFF switch, 1 ON switch): 1; higher = weaker reporter binding
Conditions: input ligand: FMN 200 uM

Residue codes | Scale unit | apparent KD of MS2 coat protein
AGCUAGUACCGAGGAUAUACAUACAUGAGGAUCACCCAUGUAUACAUGAAAUAUUGAGACUACAUGUAGAAGGCGGUACUAGCA [Mat - Same State NG 2 - JL mod - D44] (Eterna round: R96, puzzle: Same State NG 2) | nM | 13.6
AGGCCAUCGGGAGGAUAUGGCACCUUAUUGGUGCCAGAAGGUCCAACAUGAGGAUCACCCAUGUGGGAGAGUUCUAAUGAACAU [Fiskers NG1(SS) - 3] (Eterna round: R96, puzzle: Same State NG 1) | nM | 28.4
AAAACAUGAGGAUCACCCAUGUGUAAAAGAUACCGGAUGGUGCAGGAUAUAUCCCAUUAAAGUGGAUAGAAGGGUGGCAUCAAG [Eternabot solution 46] (Eterna round: R96, puzzle: Same State NG 3) | nM | 20.8
CGGAAAAUCGUAGGAUAUCUAGGAUAUGAACGAGGAUCACCCGAGCAGCAUCAGCGCAUCAGAGGAGAGAAGGACGAUGAUGCG [pwkr ssNG2 2F5 2FMN.5] (Eterna round: R96, puzzle: Same State NG 2) | nM | 1930
CCCUCACAUGAGGAUCACCCAUGUCCUAGCAGGUCAGGAUAUAGCCCGCAUCCGCUGCGGCUAGAAGGGACAGCUG [JR_SS001_Sub610] (Eterna round: R96, puzzle: Same State 1) | nM | 148
UGCUAGUGGGUAGGAUAUUUAGGAUAUGCGGAAGACUAAGUCUGUAGGUCACCUAACGCAGAAGGAGAGAAGGACCCUUCAGCU [pwkr ssNG2 2FMN + F9.29] (Eterna round: R96, puzzle: Same State NG 2) | nM | 143
UUAAUGAUGAUAGGAUAUACAUGAGGAAUUCUCGUAGAAGGAUCAUGACAUGAGGAUCACCCAUGUAUCGCUCGAUAGAGCGUA [Mat - Same State NG 1 - JL mod - D34] (Eterna round: R96, puzzle: Same State NG 1) | nM | 844
GCCGAACAUGAGGAUCACCCAUGUCUGGGUAAUCAAGGAUAUGGGAAGGCUUUGCCAUGACCAGAAGGUGGUUAUC [Zari] (Eterna round: R96, puzzle: Same State 1) | nM | 26.3
UUUAGCGUUACAGGAUAUGGUGAGGAUCACCCACUAGAAGGGUAAACAUGUGCGUCGUACAUGAGGAUCACCCAUGUAGGGCGU (Eterna round: R96, puzzle: Same State NG 1) | nM | 14.4
GUGGCGGGUUGAGGAUAUUGGUUGCAUAUGUUUAACAUGAGGAUCACCCAUGUGGGUUGCGGUUUCGAGAAGGUAGGUUGCUGG [salish99_SSNG2_r04_044] (Eterna round: R96, puzzle: Same State NG 2) | nM | 155
GCCGCGUUUCGCGCCUACAUGAGGAUCACCCAUGUUUGUAGGCAGGAUAUCGUUUGCUUUGCAAGCGAGAAGGGCUGUUGUGGC [salish99_SSNG3_R04_015] (Eterna round: R96, puzzle: Same State NG 3) | nM | 44.3
CCGUAGAUGGUAGGAUAUGGAGCCUUAUUGGCUCCAGAAGGAUCGAAAACAUGAGGAUCACCCAUGUCGGCGGUCAAUAGACCG [Eli NG1ss - 84] (Eterna round: R96, puzzle: Same State NG 1) | nM | 21.8
